system: Panc 05.04 cells (SF3b K700E mutant); experiment: Cell proliferation and viability, CellTiter-Glo, 72 hours; assay type: cell-based; details: PANC0504.1 cells, 72 h; −100% cidal, 0% static, 100% maximal growth
Give CTGlo-ATS Mean MinResponse % 72 h PANC0504.1 for every item shown.
Numbers only, in %.

// below: answered compounds
{"compound": "C/C(=C\\c1cccc(S(=O)(=O)N2CCN(C=O)CC2)c1)[C@H]1OC(=O)C[C@H](O)CC[C@H](C)[C@@H](OC(=O)N2CCN(C)CC2)/C=C/[C@@H]1C [Compound 94]", "unitOfMeasure": "%", "measuredValue": "−94.671"}
{"compound": "C/C(=C\\c1cc(F)cc(N2CCOCC2)c1)[C@H]1OC(=O)C[C@H](O)CC[C@H](C)[C@@H](OC(=O)N2CCN(C)[C@H](C)C2)/C=C/[C@@H]1C [Compound 23]", "unitOfMeasure": "%", "measuredValue": "−90.781"}
{"compound": "C/C(=C\\c1ccc(F)c(N2CCOCC2)c1)[C@H]1OC(=O)C[C@H](O)CC[C@H](C)[C@@H](OC(=O)N2CCN(C)CC2)/C=C/[C@@H]1C [Compound 8]", "unitOfMeasure": "%", "measuredValue": "−94.207"}
{"compound": "C/C(=C\\c1cc(F)cc(N2CC3CCC(C2)O3)c1)[C@H]1OC(=O)C[C@H](O)CC[C@H](C)[C@@H](OC(=O)N2CCN(C)CC2)/C=C/[C@@H]1C [Compound 32]", "unitOfMeasure": "%", "measuredValue": "−69.289"}

IN: CTGlo-ATS Mean MinResponse % 72 h PANC0504.1 of C/C(=C\c1cc(F)cc(N2CCN(S(=O)(=O)C3COC3)CC2)c1)[C@H]1OC(=O)C[C@H](O)CC[C@H](C)[C@@H](OC(=O)N2CCN(C)CC2)/C=C/[C@@H]1C [Compound 125] on Panc 05.04 cells (SF3b K700E mutant)?
OUT: −83.226

----------
target: SF3b complexes (Homo sapiens, UniProt O75533+Q7RTV0); construct: endogenous in cells; host or cells: Nuclear extracts; A HeLa S3 extract preparation is described for the in vitro splicing assay; test: Scintillation proximity assay (SPA) with [3H]-labelled pladienolide probe; format: binding; settings: SF3B1 (WT); geometric mean; read-out: SPA-ATS GMean IC50 (nM) SF3B1 (WT)
endpoint: IC50 (nM)
Answers are plain numbers, in nM.

// below: answered molecules
{"smilesText": "C/C(=C\\c1cc(F)cc(N2CCN(C(=O)Cn3cccn3)CC2)c1)[C@H]1OC(=O)C[C@H](O)CC[C@H](C)[C@@H](OC(=O)N2CCN(C3CCCCC3)CC2)/C=C/[C@@H]1C", "IC50, nM": 18.1}
{"smilesText": "C/C(=C\\c1cc(F)cc(N2CCOCC2)c1)[C@H]1OC(=O)C[C@H](O)CC[C@H](C)[C@@H](OC(=O)N2CCN(C3CCCC3)CC2)/C=C/[C@@H]1C", "IC50, nM": 10.5}

IN: If you can, please state the reported IC50 value of "C/C(=C\c1cc(F)c2nnn(C3CCCCC3)c2c1)[C@H]1OC(=O)C[C@H](O)CC[C@H](C)[C@@H](OC(=O)N2CCN(C)CC2)/C=C/[C@@H]1C" .
OUT: 3.59

----------
biological target: SF3b complexes (Homo sapiens, UniProt O75533+Q7RTV0); construct: endogenous in cells; host or cells: Nuclear extracts; A HeLa S3 extract preparation is described for the in vitro splicing assay; test: Scintillation proximity assay (SPA) with [3H]-labelled pladienolide probe; assay type: binding; details: SF3B1 (WT); geometric mean; read-out: SPA-ATS GMean IC50 (nM) SF3B1 (WT)
endpoint: IC50 (nM)
Give bare numbers, in nM.

// below: answered compounds
{"compound": "C/C(=C\\c1cc(F)cc(N2CCOCC2)c1)[C@H]1OC(=O)C[C@H](O)CC[C@H](C)[C@@H](OC(=O)N2CCN3CCCC3C2)/C=C/[C@@H]1C (stereo partly drawn)", "IC50 [nM]": 3.79}
{"compound": "C/C(=C\\c1cccc(N2CCCS2(=O)=O)c1)[C@H]1OC(=O)C[C@H](O)CC[C@H](C)[C@@H](OC(=O)N2CCN(C)CC2)/C=C/[C@@H]1C", "IC50 [nM]": 3.04}

Below: the item to evaluate.
IN: If you can, please state the reported IC50 value of "C/C(=C\c1cc(F)cc(NC(=O)CC2CC2)c1)[C@H]1OC(=O)C[C@H](O)CC[C@H](C)[C@@H](OC(=O)N2CCN(C)CC2)/C=C/[C@@H]1C" .
OUT: 3.63

----------
Give CTGlo-ATS Mean MinResponse % 72 h PANC0504.1 for every item shown.
tested on: Panc 05.04 cells (SF3b K700E mutant); assay: Cell proliferation and viability, CellTiter-Glo, 72 hours; type: cell-based; conditions: PANC0504.1 cells, 72 h; −100% cidal, 0% static, 100% maximal growth

{"compound": "C/C(=C\\c1cc(F)cc(N2CC[C@@H](F)C2)c1)[C@H]1OC(=O)C[C@H](O)CC[C@H](C)[C@@H](OC(=O)N2CCN(C)CC2)/C=C/[C@@H]1C", "measuredValue": "−91.489%"}
{"compound": "C/C(=C\\c1cc(F)c2cnn(CC(=O)N3CCCC3)c2c1)[C@H]1OC(=O)C[C@H](O)CC[C@H](C)[C@@H](OC(=O)N2CCN(C)CC2)/C=C/[C@@H]1C", "measuredValue": "−94.183%"}

Count: 3. Required value per item: CTGlo-ATS Mean MinResponse % 72 h PANC0504.1.
1. C/C(=C\c1cc(F)cc(N2CCN(S(=O)(=O)c3ccc4ccn(C)c4c3)CC2)c1)[C@H]1OC(=O)C[C@H](O)CC[C@H](C)[C@@H](OC(=O)N2CCN(C)CC2)/C=C/[C@@H]1C
2. C/C(=C\c1cc(F)cc(N2CCOC(C)C2)c1)[C@H]1OC(=O)C[C@H](O)CC[C@H](C)[C@@H](OC(=O)N2CCN(C)CC2)/C=C/[C@@H]1C (some centres unmarked)
3. C/C(=C\c1cc(F)cc(N2CCOCC2)c1)[C@H]1OC(=O)C[C@H](O)CC[C@H](C)[C@@H](OC(=O)N2CCN(CC(F)(F)F)CC2)/C=C/[C@@H]1C

OUT:
1: −97.417%; 2: −83.969%; 3: −37.359%

----------
test system: Panc 05.04 cells (SF3b K700E mutant); experiment: Cell proliferation and viability, CellTiter-Glo, 72 hours; format: cell-based; conditions: PANC0504.1 cells, 72 h; −100% cidal, 0% static, 100% maximal growth
I'd appreciate it if you could label each record using CTGlo-ATS Mean MinResponse % 72 h PANC0504.1 and these ranges: interval 1: < -90%; interval 2: ≥ -90% and < -80%; interval 3: ≥ -80%

Consider the worked cases shown below.
{"smilesText": "COCC(=O)N1CCN(c2cc(F)cc(/C=C(\\C)[C@H]3OC(=O)C[C@H](O)CC[C@H](C)[C@@H](OC(=O)N4CCN(C)CC4)/C=C/[C@@H]3C)c2)CC1", "targetDesc": "Panc 05.04 cells (SF3b K700E mutant)", "category": "interval 2"}
{"smilesText": "C/C(=C\\c1cc(F)cc(N2CCC3(COC3)C2)c1)[C@H]1OC(=O)C[C@H](O)CC[C@H](C)[C@@H](OC(=O)N2CCN(C)CC2)/C=C/[C@@H]1C", "targetDesc": "Panc 05.04 cells (SF3b K700E mutant)", "category": "interval 3"}

Could you now consider this next compound?
IN: Looking at "C/C(=C\c1cc(F)cc(N2CCN(CC3CC3)C2=O)c1)[C@H]1OC(=O)C[C@H](O)CC[C@H](C)[C@@H](OC(=O)N2CCN(C)CC2)/C=C/[C@@H]1C" , which class would you pick?
OUT: interval 1

----------
tested on: Panc 05.04 cells (SF3b K700E mutant); test: Cell proliferation and viability, CellTiter-Glo, 72 hours; assay type: cell-based; details: PANC0504.1 cells, 72 h; −100% cidal, 0% static, 100% maximal growth
Is CTGlo-ATS Mean MinResponse % 72 h PANC0504.1 at least -90%? Then YES. If not, NO.

Consider the worked cases shown below.
{"smilesText": "C/C(=C\\c1cc(F)cc(N2CCOC[C@@H]2C)c1)[C@H]1OC(=O)C[C@H](O)CC[C@H](C)[C@@H](OC(=O)N2CCN(C)CC2)/C=C/[C@@H]1C", "category": "NO"}
{"smilesText": "C/C(=C\\c1cc(Cl)cc(N2CCOCC2)c1)[C@H]1OC(=O)C[C@H](O)CC[C@H](C)[C@@H](OC(=O)N2CCN(C)CC2)/C=C/[C@@H]1C", "category": "YES"}
{"smilesText": "C/C(=C\\c1cc(F)cc(N2CCOC[C@@H]2CO)c1)[C@H]1OC(=O)C[C@H](O)CC[C@H](C)[C@@H](OC(=O)N2CCN(C)CC2)/C=C/[C@@H]1C", "category": "YES"}

IN: Could you please find out whether "C/C(=C\c1cccc(N2CCCS2(=O)=O)c1)[C@H]1OC(=O)C[C@H](O)CC[C@H](C)[C@@H](OC(=O)N2CCN(C)CC2)/C=C/[C@@H]1C" has CTGlo-ATS Mean MinResponse % 72 h PANC0504.1 that meets -90% or exceeds it?
OUT: NO

IN: Next entry: "C/C(=C\c1ccc2ccnc(O)c2c1)[C@H]1OC(=O)C[C@H](O)CC[C@H](C)[C@@H](OC(=O)N2CCN(C)CC2)/C=C/[C@@H]1C"
OUT: YES

IN: Next entry: "C/C(=C\c1cc(F)cc(N2CCN(C(=O)CN3CCOCC3)CC2)c1)[C@H]1OC(=O)C[C@H](O)CC[C@H](C)[C@@H](OC(=O)N2CCN(C)CC2)/C=C/[C@@H]1C"
OUT: YES

IN: Next entry: "C/C(=C\c1cc(F)cc(N2CCN(CCO)CC2)c1)[C@H]1OC(=O)C[C@H](O)CC[C@H](C)[C@@H](OC(=O)N2CCC(N3CCCCC3)CC2)/C=C/[C@@H]1C"
OUT: NO

IN: Next entry: "C/C(=C\c1cc(F)cc(N2CCN(S(=O)(=O)c3cccnc3)CC2)c1)[C@H]1OC(=O)C[C@H](O)CC[C@H](C)[C@@H](OC(=O)N2CCN(C)CC2)/C=C/[C@@H]1C"
OUT: YES
